System: THP1-Dual monocyte reporter cell line
Experiment description: Adjuvant effect of helper molecules on immX3 peptide potency in THP1-Dual assay
Type: cell-based, human
Condition details: immX3 peptide 330 nM plus helper at 2 uM
Marks after values point to notes of the source that are not given here.
Entries and their CD169 (AU)

Here are 4 molecules together with their reported answers.
>  <Molecule>
CCCCCCCC(=O)c1c(O)cc(O)cc1CC(=O)OCC [Cytosporone B]

>  <CD169 (AU)>
120.3 ± 6.4** AU

$$$$
>  <Molecule>
CC(=O)/C=C1\C(=O)N(C)c2ccccc21 [Supercinnamaldehyde]

>  <CD169 (AU)>
159.7 ± 16.6** AU

$$$$
>  <Molecule>
CN1C[C@H](C(=O)N[C@]2(C)O[C@@]3(O)[C@@H]4CCCN4C(=O)[C@H](Cc4ccccc4)N3C2=O)C[C@@H]2c3cccc4[nH]cc(c34)C[C@H]21 [Dihydroergotamine]

>  <CD169 (AU)>
170.3 ± 20.7** AU

$$$$
>  <Molecule>
O=C(NCc1ccco1)c1ccc2c(c1)N(Cc1c(F)cccc1Cl)C(=O)CS2 [Peptide G10, G10]

>  <CD169 (AU)>
143.4 ± 17.8** AU

$$$$

Record lookup: for THP1-Dual monocyte reporter cell line, what CD169 (AU) belongs to CC(=O)S[C@@H]1CC2=CC(=O)CC[C@]2(C)[C@H]2CC[C@@]3(C)[C@@H](CC[C@@]34CCC(=O)O4)[C@H]12 [Spironolactone] ? 120.1 ± 10.5** AU

Now consider Clc1ccc(C(c2c[nH]c3ccccc23)c2c[nH]c3ccccc23)cc1 [C-DIM12] and answer again. 119.0 ± 3.7** AU

Now consider Cc1cc2c(cc1C1(c3ccc(C(=O)O)cn3)CC1)C(C)(C)CCC2(C)C [LG100268] and answer again. 76.8 ± 11.9** AU

Now consider O=C(O)CC1CC(c2ccccc2)=NO1 (centres unmarked) [GIT27] and answer again. 166.5 ± 34.1** AU

Each recorded value in this set is attributed to patent US20240034761A1.
